All values here come from patent US20250186436A1.

Test system: eIF4E phosphorylation at Serine 209 in HEK 293 cells
Test: eIF4E phosphorylation in HEK 293 cells (phospho-specific antibody, fluorescent plate reader);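 note: Well-level p-eIF4E immunofluorescence normalized to DAPI signal, expressed as percent eIF4E phosphorylation, with IC50 derived from concentration-response curves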
Format: cell-based
Conditions: Homo sapiens, HEK293; eIF4E phosphorylation at Serine 209, 2 hours exposure; read-out: HEK 293 cell
Measured pIC50 values are reported for all entries that follow.
Please note pIC50 is a logarithmic value: minus log10 of concentration in mol/L. Answer with that number alone.

Please review the entries below; each comes with its answer.
### Prompt Item: Cc1cc(Nc2cc(NC(=O)C3CC3)ncn2)c(=O)n2c1C(=O)NC21CCC2(CC1)CN2C(=O)OCc1ccccc1 (stereo not drawn) Test system: eIF4E phosphorylation at Serine 209 in HEK 293 cells Read-out: pIC50 Value: ?
### Response 8.19

### Prompt Missing value: pIC50, eIF4E phosphorylation at Serine 209 in HEK 293 cells, entry Cc1cc(Nc2cc(NCCO)ncn2)c(=O)n2c1C(=O)NC21CCC2(CC2)CC1 . Fill in?
### Response 7.95

# input for lookup
### Prompt Give eIF4E phosphorylation at Serine 209 in HEK 293 cells pIC50 for Cc1cc(Nc2cc(NC(=O)C3CC4(CNC4)C3)ncn2)c(=O)n2c1C(=O)NC21CCC2(CC2)CC1
### Response 8.06
